Cited source for all entries: PubChem BioAssay

assay.remarks: growth effects on S. cerevisiae YJM789 – YJM789 clinical isolate, OD600, 24 h, basal, primary screen (AID 1089);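 note: growth of clinical yeast isolate S. cerevisiae YJM 789 seeded 1000 cells per well; test concentration not given here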
test.settings: higher = more signal, called active from +8 up or from −8 down
Note to self: values exactly at -0.5 are MET. So z-score at or above -0.5 is MET, below is NOT MET.

- Cc1ccc(N2C(=O)c3ccccc3[C@](C)(C(=O)NCCCN(C)C)[C@@H]2c2ccc(CO)cc2)nc1: NOT MET
- COCC(=C=CC[C@H](O)c1ccccc1OCCO)C[C@H](O)COCc1ccccc1: MET
- CCCCC(O)C1C=CC2C(=O)N(c3ccccc3)C(=O)C2N1Nc1ccc([N+](=O)[O-])cc1 (stereo not given): NOT MET
- CCCCCCc1nc(-c2ccc(-c3ccc(Cl)c(Cl)c3)o2)cc2c1[Si](C(C)C)(C(C)C)OC2: NOT MET

* * *

System: wheat germ agglutinin (Triticum aestivum), Alexa647-labelled
assay.remarks: Alexa647-WGA lectin binding to printed small molecules – biochemical, small-molecule microarray, 635/667 nm fluorescence, artefact control for SMM control-protein annotation, profiling panel (AID 1140);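 note: score merges 667 nm feature emission with signal to noise over triplicate slides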
test.settings: WGA-A647 binding, 635 nm fluorescence, higher = more signal
measured.quantity: composite z-score

- COc1ccc([Si](C)(C)[C@@H]2[C@@H](CC(=O)N(CCO)Cc3ccccc3)O[C@]3(C(=O)N(Cc4ccc(N5C(=O)c6cccc7cccc5c67)cc4)c4ccccc43)[C@H]2C)cc1: 0.934
- COc1ccc(CCNC(=O)[C@@H]2c3ccccc3C(=O)N(Cc3ccccc3OC)[C@H]2c2ccc(CO)cc2)cc1: 0.655
- CCCCCCc1nc(-c2ccc(-c3ccc(Cl)c(Cl)c3)o2)cc2c1[Si](C(C)C)(C(C)C)OC2: 0.105
- O=C1C[C@@](C(=O)O)(c2ccc([N+](=O)[O-])cc2)[C@@H](c2ccc(CO)cc2)N1C1CCCCC1: 0.92

* * *

test.target: Concanavalin-A (Canavalia ensiformis) (UniProt P02866)
Sequence (P02866 whole entry, looked up): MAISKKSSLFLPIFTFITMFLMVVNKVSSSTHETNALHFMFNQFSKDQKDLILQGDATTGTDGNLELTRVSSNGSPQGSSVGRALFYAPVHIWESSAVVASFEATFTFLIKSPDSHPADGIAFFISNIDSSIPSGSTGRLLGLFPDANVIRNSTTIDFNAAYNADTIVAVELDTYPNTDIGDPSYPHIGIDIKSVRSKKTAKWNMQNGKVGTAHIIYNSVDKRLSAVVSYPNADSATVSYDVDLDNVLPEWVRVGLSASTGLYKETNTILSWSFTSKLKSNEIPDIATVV
assay.remarks: compounds binding concanavalin A lectin – biochemical, small-molecule microarray, Alexa647 label, 635 nm, artefact control for SMM control protein annotation, primary screen (AID 1127);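 note: z combines 667 nm emission intensity with signal-to-noise across three replicate slides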
test.settings: ConA-A647 binding fluorescence, higher = more signal
measured.quantity: composite z-score

* CCCN1C(=O)[C@]2(CCC(=O)OC(C)(C)C)N=C(c3ccc(OCCCO)cc3)O[C@@H]2c2ccccc21 | 1.03
* COC(=O)[C@@]1(Cc2ccccc2)[C@H]2c3cc(C(=O)N(C)C)n(CCSC(=N)N)c3C[C@H]2CN1C(=O)c1ccccc1 | -1.36
* O=C1N(Cc2ccccc2)c2ccccc2C[C@@]12COC(c1ccc(OCCCO)cc1)=N2 | 0.582
* CC(C)N1C(=O)C[C@@](C(=O)NCCN2CCOCC2)(c2ccc([N+](=O)[O-])cc2)[C@H]1c1ccc(CO)cc1 | 0.257
* COC(=O)[C@@]1(Cc2ccccc2)[C@H]2c3cc(C(=O)N(C)C)n(Cc4ccc(S(C)(=O)=O)cc4)c3C[C@H]2CN1C(=O)c1ccccc1 | 1.08
* COc1ccc([Si](C)(C)[C@H]2[C@H](CC(=O)N3Cc4ccccc4C[C@H]3CO)O[C@@]3(C(=O)N(C)c4c(Br)cc(C)cc43)[C@@H]2C)cc1 | 1.06
* C=CC[C@@]12N=C(c3ccc(OCCCO)cc3)O[C@@H]1c1ccccc1N(CCC)C2=O | 1.06
* COC(=O)C(CC#Cc1ccc2c(c1)[C@]1(C(=O)N2)[C@H](C(=O)N2CCc3cc(OC)c(OC)cc3C2)[C@H]2C(=O)O[C@H](c3ccccc3)[C@H](c3ccccc3)N2[C@@H]1c1ccccc1OCCO)C(=O)OC | 1.14

* * *

test.target: NADPH oxidase 2 (Homo sapiens) (UniProt P04839)
Sequence (P04839 whole entry, looked up): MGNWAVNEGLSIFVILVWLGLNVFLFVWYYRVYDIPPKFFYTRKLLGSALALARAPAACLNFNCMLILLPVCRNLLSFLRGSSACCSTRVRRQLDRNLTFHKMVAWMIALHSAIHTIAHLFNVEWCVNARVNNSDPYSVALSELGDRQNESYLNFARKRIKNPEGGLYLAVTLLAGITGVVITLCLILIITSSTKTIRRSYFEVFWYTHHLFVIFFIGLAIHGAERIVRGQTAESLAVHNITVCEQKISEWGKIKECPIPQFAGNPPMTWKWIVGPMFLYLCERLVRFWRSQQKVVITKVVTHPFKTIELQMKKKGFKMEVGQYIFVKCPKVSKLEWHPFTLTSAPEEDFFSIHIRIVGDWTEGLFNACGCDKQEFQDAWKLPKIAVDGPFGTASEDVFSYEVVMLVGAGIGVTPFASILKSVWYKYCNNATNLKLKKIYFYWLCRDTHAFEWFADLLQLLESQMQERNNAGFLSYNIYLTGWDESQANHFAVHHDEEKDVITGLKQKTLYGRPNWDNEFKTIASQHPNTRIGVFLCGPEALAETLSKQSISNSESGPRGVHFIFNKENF
assay.remarks: compounds shifting NOX2 Amplex Red fluorescence – cell-based, HEK293-NOX2, PMA-stimulated, NOX inhibitor project, primary screen (AID 1159); note: test concentration not given here
test.settings: 45 min, higher = more signal, called active from +8 up or from −8 down
Recorded z-score, one value per entry.
measured.quantity: z-score

* O=C1C2C=CC(C(O)c3ccc([N+](=O)[O-])cc3)N(Nc3ccccc3F)C2C(=O)N1c1ccccc1 (centres undefined) | -2.54
* COC(=O)[C@@]1(Cc2ccc(F)cc2)[C@H]2c3cc(C(=O)N4CCCC4)n(CCc4ccccn4)c3C[C@H]2CN1C(=O)c1ccccc1 | 0.557
* COC(=O)[C@@]1(Cc2ccc(OC)cc2)[C@H]2c3cc(C(=O)N4CCCC4)n(Cc4ccc(C(F)(F)F)nc4)c3C[C@H]2CN1C(=O)c1ccccc1 | 0.101
* COc1ccc(C(=O)Nc2ccc3c(c2)[C@@]2(O[C@H](CCO)[C@@H]([Si](C)(C)c4ccc(OC)cc4)[C@@H]2C)C(=O)N3Cc2ccccc2)cc1 | -4.96

* * *

Property: z-score; scope: individual compounds
assay.remarks: compound effects on differentiated 3T3-L1 adipocyte viability – cell-based, 3T3-L1 adipocytes, calcein-AM fluorescence, 48 h, basal, profiling panel (AID 1163); note: test concentration not given here
test.settings: 3T3-L1 adipocytes viability, higher = more signal
measured.quantity: z-score

- CCCCC(=C=CC[C@H](O)c1ccc(CO)o1)CCO: -0.652
- COc1ccc(C(=O)Nc2cccc(CN3C(=O)[C@@]4(O[C@@H](CC(=O)N5CCC[C@H]5CO)[C@H]([Si](C)(C)c5ccc(OC)cc5)[C@H]4C)c4ccccc43)c2)cc1: 0.695
- NC(=O)NCC#Cc1ccc2c(c1)[C@]1(C(=O)N2)[C@H](c2ccc(OCCO)cc2)N2[C@H](c3ccccc3)[C@H](c3ccccc3)OC(=O)[C@H]2[C@@H]1C(=O)NC[C@H](O)c1ccccc1: 0.326
- C=CC[C@@]1(C(=O)OC)N=C(c2ccc(OCCCO)cc2)O[C@@H]1c1ccccc1N=[N+]=[N-]: 1.02
- NC(=O)N1C(=O)C2C(C1=O)C1C=C(CCCO)C2C(C2CC2)N1Cc1sc2ccccc2c1Cl (stereo not given): 0.66
- CC(C)OC(=O)CC(=O)CC(O)c1cccc([N+](=O)[O-])c1 (stereo not given): 0.804
- CC(C)C[C@@H]1NC(=O)[C@@]23C(=O)N[C@@H](Cc4ccccc4)C2[C@H](C)[C@@]2(C)O[C@H]2C3/C=C/C/C=C\CNC(=O)CNC1=O (stereo not given in full): 0.97
- CCOC(=O)C1=CC[C@@H](c2ccccc2)N(S(=O)(=O)c2ccc(C)cc2)[C@H]1c1ccccc1I: -1.01
- CC(C)N1C(=O)c2ccccc2[C@@H](C(=O)NCC(F)(F)F)[C@@H]1c1ccc(CO)cc1: -1.81
- CN(C)C(=O)[C@@]1(Cc2ccccc2CN=[N+]=[N-])COC(c2ccc(OCCCO)cc2)=N1: 0.442
- COCCOC(=O)N1C(=O)[C@@]2(c3ccccc31)[C@H](C(=O)N1CCN(c3ncccn3)CC1)[C@H]1C(=O)O[C@H](c3ccccc3)[C@H](c3ccccc3)N1[C@@H]2c1ccccc1OCCO: 0.549
- C=CCN1C(=O)[C@]2(O[C@H](CCn3cc([C@H](O)c4ccccc4)nn3)[C@@H]([Si](C)(C)c3ccc(OC)cc3)[C@@H]2C)c2cc(NC(=O)c3ccc(OC)cc3)ccc21: 0.37
- C=CCN1Cc2ccccc2[C@H]2OC(c3ccc(OCCCO)cc3)=N[C@@]2(CCS(=O)(=O)c2ccccc2)C1=O: 0.413
- CC(C)(C)OC(=O)CC[C@@]1(C(=O)NCCN2CCOCC2)N=C(c2ccc(OCCCO)cc2)O[C@@H]1c1ccccc1CN=[N+]=[N-]: -0.502
- CN(C)CCCNC(=O)[C@@]1(Cc2ccccc2I)c2ccccc2C(=O)N(C2CCCCC2)[C@H]1c1ccc(CO)cc1: -0.546

* * *

assay.remarks: blood-stage malaria parasite viability loss – strain 3D7, DAPI fluorescence, 100 nL, primary screen (AID 1184);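 note: parasites grown inside human red blood cells in medium with human serum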
test.settings: P. falciparum 3D7 growth, 3 d, higher = more signal
// label = true if z-score is not less than -0.8, otherwise false

* C=C(C)[C@@H]1CC=C(C(O)C2C=CC3C(=O)N(C)C(=O)C3N2Nc2ccc([N+](=O)[O-])cc2[N+](=O)[O-])CC1 (some centres undefined) | true
* COCCCNC(=O)[C@@]1(Sc2ccc(C)cc2)CC(=O)N(Cc2ccccc2C(F)(F)F)[C@@H]1c1ccc(CO)cc1I | true
* CN(C)CCCCNC(=O)[C@H]1C[C@H]2C(=O)N3CCC[C@H]3C(=O)N2[C@H]1c1cccc(OCCO)c1 | true
* C=CCC(OC(C)=O)[C@@H]1[C@@H](N(Cc2cc3ccccc3o2)C(=O)Cc2ccc(OC)cc2)c2cc(OCCCO)ccc2N1C(=O)c1ccc2ccccc2n1 (some centres undefined) | false
* COCCOC(=O)N1C(=O)[C@@]2(c3cc(C#CCCO)ccc31)[C@H](c1ccccc1OCCO)N1[C@H](c3ccccc3)[C@H](c3ccccc3)OC(=O)[C@H]1[C@@H]2C(N)=O | false
* N#Cc1ccc(NN2C(C(O)C3CC=CCC3)C=CC3C(=O)N(c4ccccc4)C(=O)C32)cc1 (centres undefined) | true
* CC(C)C(=C=CC[C@H](O)c1ccccc1OCCO)C[C@H](O)c1cc(Cl)cc(Cl)c1O | false
* COC(=O)[C@@]1(Cc2ccc(OC)cc2)[C@H]2c3cc(C(=O)N4CCCC4)n(Cc4c(CO)[nH]cc(C)c4=O)c3C[C@H]2CN1C(=O)c1ccccc1 | false
* COC(=O)[C@@]1(Cc2ccc(OC)cc2)[C@H]2c3cc(C(=O)N(C)C)[nH]c3C[C@H]2CN1C(=O)c1ccccc1 | true
* CCOC(=O)C[C@H]1[C@H](OC(=O)Cc2ccc3c(c2)OCO3)[C@@H](NC(=O)c2ccc3ccccc3n2)c2cc(OCCCO)ccc2N1C(=O)Cc1ccc(OC)cc1 | false
* CC(C)N1C(=O)C[C@@](C(=O)NCCN2CCOCC2)(c2ccc([N+](=O)[O-])cc2)[C@H]1c1ccc(CO)cc1 | true
* O=C(NCC(O)CO)[C@@]1(CCS(=O)(=O)c2ccccc2)N=C(c2ccc(OCCCO)cc2)O[C@H]1c1ccccc1 (some centres undefined) | false
* [N-]=[N+]=Nc1ccccc1[C@@H]1OC(c2ccc(OCCCO)cc2)=N[C@]1(Cc1ccccc1)C(=O)NCCN1CCOCC1 | false
